system_name: GluN2B glutamate receptors expressed in mammalian cells (Homo sapiens (Human), UniProt Q05586+Q13224)
Sequence (Q13224 27-1484, other chains not shown): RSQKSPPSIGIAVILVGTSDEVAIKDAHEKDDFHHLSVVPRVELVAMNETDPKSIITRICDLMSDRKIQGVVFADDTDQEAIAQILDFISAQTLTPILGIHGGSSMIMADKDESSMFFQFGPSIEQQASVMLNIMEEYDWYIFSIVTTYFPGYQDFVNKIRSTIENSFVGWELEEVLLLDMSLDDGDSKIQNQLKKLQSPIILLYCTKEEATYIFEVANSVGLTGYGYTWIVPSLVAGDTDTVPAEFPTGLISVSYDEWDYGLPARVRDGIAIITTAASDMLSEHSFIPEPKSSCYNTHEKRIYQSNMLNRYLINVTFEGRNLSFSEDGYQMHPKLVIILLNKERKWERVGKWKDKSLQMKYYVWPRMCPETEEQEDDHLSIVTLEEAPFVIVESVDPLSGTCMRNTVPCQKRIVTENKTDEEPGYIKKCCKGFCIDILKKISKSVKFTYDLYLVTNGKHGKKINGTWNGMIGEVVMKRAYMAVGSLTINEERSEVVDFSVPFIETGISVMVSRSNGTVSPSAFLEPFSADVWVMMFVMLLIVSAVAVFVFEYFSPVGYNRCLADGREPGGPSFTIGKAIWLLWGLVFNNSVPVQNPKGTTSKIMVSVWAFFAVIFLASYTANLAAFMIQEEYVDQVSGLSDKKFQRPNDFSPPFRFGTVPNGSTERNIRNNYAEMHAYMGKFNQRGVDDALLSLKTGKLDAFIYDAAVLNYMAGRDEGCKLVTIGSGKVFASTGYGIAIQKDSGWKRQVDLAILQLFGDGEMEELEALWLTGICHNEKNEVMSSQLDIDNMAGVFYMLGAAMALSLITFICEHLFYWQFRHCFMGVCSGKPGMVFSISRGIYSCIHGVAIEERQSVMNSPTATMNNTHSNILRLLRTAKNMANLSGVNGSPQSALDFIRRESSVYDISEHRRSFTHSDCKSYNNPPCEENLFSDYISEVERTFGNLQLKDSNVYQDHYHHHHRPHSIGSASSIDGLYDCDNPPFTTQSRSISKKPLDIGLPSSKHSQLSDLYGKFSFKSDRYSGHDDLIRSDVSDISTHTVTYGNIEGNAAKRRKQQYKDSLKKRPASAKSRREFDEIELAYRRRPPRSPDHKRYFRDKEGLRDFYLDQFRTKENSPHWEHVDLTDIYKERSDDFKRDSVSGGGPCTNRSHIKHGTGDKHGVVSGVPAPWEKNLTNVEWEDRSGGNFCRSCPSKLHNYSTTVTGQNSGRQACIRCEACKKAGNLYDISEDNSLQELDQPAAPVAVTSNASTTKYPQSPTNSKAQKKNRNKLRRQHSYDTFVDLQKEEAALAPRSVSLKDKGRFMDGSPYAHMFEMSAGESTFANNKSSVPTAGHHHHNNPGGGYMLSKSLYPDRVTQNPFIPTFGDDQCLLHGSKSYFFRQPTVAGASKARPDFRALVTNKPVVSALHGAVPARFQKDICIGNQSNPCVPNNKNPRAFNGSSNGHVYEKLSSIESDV
experiment_summary: Whole-cell patch clamp of mammalian cells (Ionworks Barracuda), positive allosteric modulation, GluN2B
Type: cell-based
The following molecules are shown together with reported EC50 values.

Example cases with answers are listed next.
C[C@@H]([C@H]1CC[C@H]2[C@@H]3CC[C@H]4C[C@](O)(C(F)(F)F)CC[C@]4(C)[C@H]3CC[C@]12C)[C@@H](O)C[C@@H](O)c1ccccc1
> 1000 nM
CC[C@]1(O)CC[C@@]2(C)[C@@H](CC[C@@H]3[C@@H]2CC[C@]2(C)[C@@H]([C@H](C)[C@H](O)CCC(C)C)CC[C@@H]32)C1
> 1000 nM
CC[C@]1(O)CC[C@@]2(C)[C@@H](CC[C@@H]3[C@@H]2CC[C@]2(C)[C@@H]([C@H](C)[C@@H](O)CC4CCC(C)(C)CC4)CC[C@@H]32)C1
> 1000 nM

Moving on to the next molecule.
input: Name the recorded EC50 of the item `CC[C@]1(O)CC[C@@]2(C)[C@H](CC[C@@H]3[C@@H]2CC[C@]2(C)[C@@H]([C@H](C)[C@@H](O)CC4CCC(C)(C)CC4)CC[C@@H]32)C1` in your answer.
output: > 1000 nM

---

The following compounds are shown together with reported activation at 1 µM values.
system_name: glutamate-activated channels of the GRIN1/2A subtype stably transfected in HEK 293 cells (Homo sapiens (Human), UniProt Q05586+Q12879)
Sequence (Q12879 whole entry, looked up, other chains not shown): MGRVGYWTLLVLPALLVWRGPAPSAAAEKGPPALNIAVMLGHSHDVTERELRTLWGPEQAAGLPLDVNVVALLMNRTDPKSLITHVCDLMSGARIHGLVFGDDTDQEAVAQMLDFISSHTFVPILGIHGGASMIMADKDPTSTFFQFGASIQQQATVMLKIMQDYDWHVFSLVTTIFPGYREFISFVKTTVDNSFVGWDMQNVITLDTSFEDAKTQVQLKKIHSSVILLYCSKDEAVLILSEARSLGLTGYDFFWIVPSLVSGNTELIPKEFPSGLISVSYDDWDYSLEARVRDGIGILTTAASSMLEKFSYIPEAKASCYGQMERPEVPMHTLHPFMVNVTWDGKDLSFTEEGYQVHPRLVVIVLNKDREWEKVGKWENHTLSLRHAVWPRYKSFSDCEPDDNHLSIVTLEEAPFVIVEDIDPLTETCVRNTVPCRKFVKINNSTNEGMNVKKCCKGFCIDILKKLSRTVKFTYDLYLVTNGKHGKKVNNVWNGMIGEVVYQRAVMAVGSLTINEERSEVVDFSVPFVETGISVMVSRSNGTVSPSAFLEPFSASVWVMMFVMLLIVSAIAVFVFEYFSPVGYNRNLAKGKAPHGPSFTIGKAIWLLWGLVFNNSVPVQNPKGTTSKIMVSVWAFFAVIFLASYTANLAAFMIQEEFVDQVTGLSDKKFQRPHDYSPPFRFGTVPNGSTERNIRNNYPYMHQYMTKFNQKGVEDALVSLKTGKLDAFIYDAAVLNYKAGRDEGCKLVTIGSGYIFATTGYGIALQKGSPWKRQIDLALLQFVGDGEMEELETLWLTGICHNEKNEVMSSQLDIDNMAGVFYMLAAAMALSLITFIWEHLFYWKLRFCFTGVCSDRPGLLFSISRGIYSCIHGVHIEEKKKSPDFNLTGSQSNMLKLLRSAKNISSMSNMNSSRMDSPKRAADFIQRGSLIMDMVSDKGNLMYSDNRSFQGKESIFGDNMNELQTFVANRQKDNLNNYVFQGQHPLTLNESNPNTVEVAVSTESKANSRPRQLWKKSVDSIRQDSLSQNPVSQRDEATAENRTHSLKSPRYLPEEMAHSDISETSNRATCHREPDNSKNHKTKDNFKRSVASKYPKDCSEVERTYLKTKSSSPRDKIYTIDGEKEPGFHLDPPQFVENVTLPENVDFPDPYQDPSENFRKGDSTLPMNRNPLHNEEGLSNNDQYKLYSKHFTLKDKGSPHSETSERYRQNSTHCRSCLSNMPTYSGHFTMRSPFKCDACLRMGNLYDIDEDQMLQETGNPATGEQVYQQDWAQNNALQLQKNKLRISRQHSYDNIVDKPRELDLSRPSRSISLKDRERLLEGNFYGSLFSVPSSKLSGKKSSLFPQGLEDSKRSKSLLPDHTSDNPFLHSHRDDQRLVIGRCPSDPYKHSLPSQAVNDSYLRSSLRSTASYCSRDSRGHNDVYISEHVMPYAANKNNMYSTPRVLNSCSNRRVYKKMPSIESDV
experiment_summary: Automated patch-clamp system (QPatch HTX), percent potentiation at 1 μM
Type: cell-based
cond: HEK293, 1 μM test compound, 300 μM NMDA with 8 μM glycine, HEK 293 GRIN1/2A, read-out: GluN2A PCA % potentiation at 1 μM

Example cases with answers are listed next.
CC[C@]1(O)CC[C@@]2(C)C(=CC[C@H]3[C@@H]4CC[C@H]([C@H](C)[C@@H](O)CC5(C)COC5)[C@@]4(C)CC[C@@H]32)C1
-40 to -10%
CC(C)CC[C@@H](O)[C@@H](C)[C@H]1CC[C@H]2[C@@H]3CC[C@H]4C[C@](O)(C(F)(F)F)CC[C@]4(C)[C@H]3CC[C@]12C
-10 to 10%
COC[C@]1(O)CC[C@H]2[C@H](CC[C@@H]3[C@@H]2CC[C@]2(C)[C@@H]([C@H](C)[C@@H](O)C(F)(F)F)CC[C@@H]32)C1
-40 to -10%

input: Name the recorded activation at 1 µM of the item `CC(C)CC[C@@H](O)[C@@H](C)[C@H]1CC[C@H]2[C@@H]3CC[C@H]4C[C@@](C)(O)CC[C@@H]4[C@H]3CC[C@]12C` in your answer.
output: -40 to -10%

input: Name the recorded activation at 1 µM of the item `CC[C@]1(O)CC[C@@]2(C)[C@H](CC[C@@H]3[C@@H]2CC[C@]2(C)[C@@H]([C@H](C)[C@@H](O)C(F)(F)F)CC[C@@H]32)C1` in your answer.
output: < -40%

input: Name the recorded activation at 1 µM of the item `CC[C@]1(O)CC[C@@]2(C)[C@@H](CC[C@@H]3[C@@H]2CC[C@]2(C)[C@@H]([C@H](C)[C@@H](O)C(F)(F)F)CC[C@@H]32)C1` in your answer.
output: -40 to -10%

input: Name the recorded activation at 1 µM of the item `COC[C@]1(O)CC[C@@]2(C)C(=CC[C@H]3[C@@H]4CC[C@H]([C@H](C)[C@@H](O)C(F)(F)F)[C@@]4(C)CC[C@@H]32)C1` in your answer.
output: < -40%

input: Name the recorded activation at 1 µM of the item `CC[C@]1(O)CC[C@@]2(C)[C@@H](CC[C@@H]3[C@@H]2CC[C@]2(C)[C@@H]([C@H](C)[C@@H](O)C(C)C)CC[C@@H]32)C1` in your answer.
output: -40 to -10%

input: Name the recorded activation at 1 µM of the item `CC[C@]1(O)CC[C@@]2(C)[C@H](CC[C@@H]3[C@@H]2CC[C@]2(C)[C@@H]([C@H](C)[C@H](O)CC4CCCC4)CC[C@@H]32)C1` in your answer.
output: -10 to 10%

input: Name the recorded activation at 1 µM of the item `CC[C@]1(O)CC[C@@]2(C)[C@@H](CC[C@@H]3[C@@H]2CC[C@]2(C)[C@@H]([C@H](C)[C@H](O)CC4CCCC4)CC[C@@H]32)C1` in your answer.
output: -10 to 10%

input: Name the recorded activation at 1 µM of the item `CC[C@]1(O)CC[C@@]2(C)[C@@H](CC[C@@H]3[C@@H]2CC[C@]2(C)[C@@H]([C@H](C)[C@H](O)c4ccccc4)CC[C@@H]32)C1` in your answer.
output: -40 to -10%

input: Name the recorded activation at 1 µM of the item `CC(C)CC[C@H](O)[C@@H](C)[C@H]1CC[C@H]2[C@@H]3CC[C@H]4C[C@@](C)(O)CC[C@@H]4[C@H]3CC[C@]12C` in your answer.
output: -40 to -10%

input: Name the recorded activation at 1 µM of the item `CC[C@]1(O)CC[C@@]2(C)[C@@H](CC[C@@H]3[C@@H]2CC[C@]2(C)[C@@H]([C@H](C)[C@@H](O)CC4CCCC4)CC[C@@H]32)C1` in your answer.
output: -40 to -10%
